Attribute: IC50
molecular target: JAK3 (Homo sapiens); construct: 5 μl of catalytic domain recombinant Kinase enzyme+Tyr peptide substrate (Invitrogen, Calif.); purchased Invitrogen; assay: Z'-LYTE kinase assay, JAK3 tyrosine phosphorylation activity; format: biochemical
Sequence (P52333 822-1111 limits assumed): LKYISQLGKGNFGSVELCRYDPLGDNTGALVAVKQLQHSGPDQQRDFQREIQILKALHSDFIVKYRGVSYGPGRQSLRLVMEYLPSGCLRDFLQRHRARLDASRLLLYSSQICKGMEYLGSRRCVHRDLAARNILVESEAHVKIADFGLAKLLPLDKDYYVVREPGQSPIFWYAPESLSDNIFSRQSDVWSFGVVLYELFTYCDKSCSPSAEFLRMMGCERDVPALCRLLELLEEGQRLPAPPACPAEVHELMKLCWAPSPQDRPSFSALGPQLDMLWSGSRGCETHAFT

Some solved entries appear below for comparison.
NC(=O)c1cnc(Nc2cccc(NC(=O)N3CCOCC3)c2)nc1NCc1cccc(F)c1: 0.001 to 0.01 µM
COCC(=O)Nc1cccc(Nc2ncc(C(N)=O)c(NC3CCCC3)n2)c1: 0.001 to 0.01 µM
NC(=O)c1cnc(Nc2cccc(NC(=O)c3cccnc3)c2)nc1NCc1ccccc1F: < 0.001 µM
CC(=O)Nc1cc(Nc2ncc(C(N)=O)c(Nc3cccc4nsnc34)n2)ccc1OCCN1CCCC1: 0.001 to 0.01 µM
CC(=O)Nc1cccc(Nc2ncc(C(N)=O)c(N[C@@H](C)C(N)=O)n2)c1: 0.01 to 0.1 µM
CC(=O)Nc1cccc(Nc2ncc(C(N)=O)c(NC3CCCC3)n2)c1: 0.001 to 0.01 µM
CC(=O)Nc1cccc(Nc2ncc(C(N)=O)c(NC[C@H](O)c3ccccc3)n2)c1: 0.001 to 0.01 µM

Prompt: Provide the reported IC50 (system: JAK3 (Homo sapiens)) for NC(=O)c1cnc(Nc2ccc(F)c(NC(=O)N3CCC3)c2)cc1NCc1cccc(F)c1
Response: 0.001 to 0.01 µM
